target: GSK3β (h) (Homo sapiens); experiment: GSK-3β human kinase assay (SPA); format: biochemical; settings: read-out: GSK3B pIC50 (converted)
Sequence (P49841 whole entry): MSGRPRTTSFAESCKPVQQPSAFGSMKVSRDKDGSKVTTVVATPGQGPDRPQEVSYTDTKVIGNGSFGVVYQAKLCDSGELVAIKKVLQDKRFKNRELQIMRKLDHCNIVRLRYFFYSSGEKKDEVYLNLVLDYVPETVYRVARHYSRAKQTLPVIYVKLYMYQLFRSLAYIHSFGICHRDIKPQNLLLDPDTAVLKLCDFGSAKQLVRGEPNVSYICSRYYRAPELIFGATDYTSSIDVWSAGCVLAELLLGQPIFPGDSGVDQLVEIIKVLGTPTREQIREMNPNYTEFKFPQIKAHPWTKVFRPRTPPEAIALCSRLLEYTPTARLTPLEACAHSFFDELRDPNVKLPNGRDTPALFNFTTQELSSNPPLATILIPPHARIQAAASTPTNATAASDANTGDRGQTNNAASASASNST
For each entry below, report its IC50 value.
Express your answer in nM, writing the number without its unit.

For the record CN1CCCCCC(=O)N(C)CCNc2ncnc3c2/C(=C/Nc2cccc(c2)C1)C(=O)N3 , what value of IC50 is listed for GSK3β (h) (Homo sapiens)?
4680

Please do the same for COc1nc2c3c(n1)NC(=O)/C3=C\Nc1ccc(Cl)c(c1)OCCCCC(=O)N(C)CCCN2 as well.
3090

Please do the same for COc1ccc2cc1OCCCCC(=O)N(C)CCNc1ncnc3c1/C(=C/N2)C(=O)N3 as well.
120

Please do the same for N#Cc1ccc2cc1OCCCCC(=O)N1CCN(CC1)c1ncnc3c1/C(=C/N2)C(=O)N3 as well.
2630

---

target: GSK3β (h) (Homo sapiens); test: GSK-3β human kinase assay (SPA); assay type: biochemical; settings: read-out: GSK3B pIC50 (converted)
Rule: measured IC50 below 1000 nM gets satisfied; anything equal to or greater than 1000 nM gets not satisfied.

Determine whether this compound shows IC50 lower than 1000 nM (ties excluded): CN1CCNC(=O)CCCCOc2cccc(c2)N/C=C2\C(=O)Nc3ncnc1c32
not satisfied

Please do the same for CN1CCCNc2ncnc3c2/C(=C/Nc2cccc(c2)OCC(=O)N[C@H](Cc2ccccc2)C1)C(=O)N3 as well.
not satisfied

Please do the same for CN1CCCNc2ncnc3c2/C(=C/Nc2ccc(Cl)c(c2)OCCCCCCC1=O)C(=O)N3 as well.
not satisfied

Please do the same for CN1CCNC(=O)CCCCCOc2cc(ccc2Cl)N/C=C2\C(=O)Nc3ncnc1c32 as well.
not satisfied

Please do the same for O=C1Nc2ncnc3c2/C1=C/Nc1cccc(c1)OCCN1C[C@H](O)C[C@@H]1C(=O)N1CCN3CC1 as well.
satisfied

Please do the same for CN1CCC(=O)N(C)CCNc2ncnc3c2/C(=C/Nc2ccc(Cl)c(c2)OCC(O)C1)C(=O)N3 (stereo not shown) as well.
not satisfied

Please do the same for CN1CCNc2ncnc3c2/C(=C/Nc2cc(cc(C(F)(F)F)c2)OCCCC1=O)C(=O)N3 as well.
not satisfied

Please do the same for CN1CCCC(=O)N(C)CCNc2ncnc3c2/C(=C/Nc2ccc(N4CCOCC4)c(c2)C1)C(=O)N3 as well.
not satisfied

Please do the same for CN1CCN(c2ccc3cc2CN(C)CCCCCC(=O)N(C)CCNc2ncnc4c2/C(=C/N3)C(=O)N4)CC1 as well.
not satisfied

Please do the same for CN1CCCNc2ncnc3c2/C(=C/Nc2cccc(c2)OCC(=O)N2CCC[C@@H]2C1)C(=O)N3 as well.
not satisfied

Please do the same for CN1CCN(c2ccc3cc2OCCCCCC(=O)N(C)CCNc2ncnc4c2/C(=C/N3)C(=O)N4)CC1 as well.
satisfied

Please do the same for COc1ccc2cc1OCC(=O)N(C)CCCCNc1ncnc3c1/C(=C/N2)C(=O)N3 as well.
satisfied

Please do the same for COc1cc2cc(c1OC)CN(C)CC(=O)N(C)CCCNc1ncnc3c1/C(=C/N2)C(=O)N3 as well.
not satisfied

Please do the same for CN1CCNc2ncnc3c2/C(=C/Nc2ccc(N4CCOCC4)c(c2)OCCCC1=O)C(=O)N3 as well.
not satisfied

Please do the same for CN1CCN(c2ccc3cc2CN(C)CCCC(=O)N(C)CCNc2ncnc4c2/C(=C/N3)C(=O)N4)CC1 as well.
not satisfied
